Where do these numbers come from? They come from PubChem BioAssay (NCI).

Test system: MDA-MB-231 breast
Experiment: NCI-60 one-dose screen, 48 h
Details: 10 µM unless noted
Compounds without any hit were thinned out: in the full panel of roughly 83,000, 20% have a hit. The source made the active and inactive calls. Rule for the calls: active = growth percent below 10; inactive = the rest.
Entry note: the call must match one of active, inactive

SUBSTANCE SMILES | GROUP
CCCCOC(=O)c1c(C)[nH]c(/C=C2\N=C(c3ccc[nH]3)C=C2OC)c1C | active
C[C@]12CCc3nc(Nc4ccccc4)sc3C1=CC[C@@H]1[C@@H]2CC[C@]2(C)/C(=N/NC(N)=S)CC[C@@H]12 | inactive
C[C@H]1[C@H](C)CC[C@]2(COC(=O)CCC(=O)O)CC[C@]3(C)C(=CC[C@@H]4[C@@]5(C)CCCNC(C)(C)[C@@H]5CC[C@]43C)[C@H]12 | inactive

Kindly review the next molecule as well.
Kindly provide the recorded test outcome for the following molecule: CCCOc1ccc(-c2nc(-c3ccc(N)cc3)cs2)cc1
inactive
